# Test system: KM12 colon
# method summary: NCI-60 one-dose screen, 48 h
# cond: 10 µM unless noted
About 83,000 compounds went through this panel and 20% of them were active in at least one assay; those are over-represented in the sample as a whole. Active and inactive are the calls of the source. How the source made its calls: active means growth percent below 10; inactive means the rest.
Would you mind answering with one of these outcomes? YES = active, NO = inactive

Some solved entries appear below for comparison.
| compound | assigned class |
| --- | --- |
| C=C(CNCCc1ccc(O)cc1)[C@@H]1CC[C@]2(CO)CC[C@]3(C)[C@H](CC[C@@H]4[C@@]5(C)CCC(=O)C(C)(C)[C@@H]5CC[C@]43C)[C@@H]12 | YES |
| C=C1C(=O)O[C@H]2[C@H]1CC/C(COC(=O)/C=C\C(=O)NCc1ccc(Cn3c(=O)sn(CCCCC)c3=O)cc1)=C\CC[C@@]1(C)O[C@@H]21 | NO |
| COc1cc(OC)c2sc(-c3ccc(-n4cncc4-c4cc(OC)c(OC)c(OC)c4)cc3)nc2c1 | NO |

## Task So what was the verdict on COc1ccc(/C=C(/c2ccccc2)[N+](=O)[O-])c(OC)c1 in this test?
## Result YES

## Task So what was the verdict on CCCn1cnc2c(c1=N)C(c1ccc(F)cc1)c1sc3c(F)cccc3c1O2 (centres undefined) in this test?
## Result NO

## Task So what was the verdict on Cc1ccc(-c2nc3nc(-c4ccccc4)nc(N4CCCN(S(C)(=O)=O)CC4)c3o2)cc1 in this test?
## Result NO

## Task So what was the verdict on COc1ccc2c(c1)/C(=N/c1n[nH]c(=S)s1)C(=O)N2 in this test?
## Result NO

## Task So what was the verdict on CC1=C(C(=O)Nc2ccccc2)C(c2ccc3c(c2)OCO3)NC(=S)N1 (centres undefined) in this test?
## Result NO

## Task So what was the verdict on Cc1ccc2nc(NC(=O)CSc3nc(-c4ccccc4)c(C#N)c4nnnn34)sc2c1 in this test?
## Result NO
